Measured EC50, listed per entry for reference.
Biological target: horseradish peroxidase (HRP) tagged delF508-CFTR (Homo sapiens, UniProt P13569, DEL508-508)
Construct: expressed in transfected cells
Sequence (P13569 with tags, fused parts or gaps DEL508-508): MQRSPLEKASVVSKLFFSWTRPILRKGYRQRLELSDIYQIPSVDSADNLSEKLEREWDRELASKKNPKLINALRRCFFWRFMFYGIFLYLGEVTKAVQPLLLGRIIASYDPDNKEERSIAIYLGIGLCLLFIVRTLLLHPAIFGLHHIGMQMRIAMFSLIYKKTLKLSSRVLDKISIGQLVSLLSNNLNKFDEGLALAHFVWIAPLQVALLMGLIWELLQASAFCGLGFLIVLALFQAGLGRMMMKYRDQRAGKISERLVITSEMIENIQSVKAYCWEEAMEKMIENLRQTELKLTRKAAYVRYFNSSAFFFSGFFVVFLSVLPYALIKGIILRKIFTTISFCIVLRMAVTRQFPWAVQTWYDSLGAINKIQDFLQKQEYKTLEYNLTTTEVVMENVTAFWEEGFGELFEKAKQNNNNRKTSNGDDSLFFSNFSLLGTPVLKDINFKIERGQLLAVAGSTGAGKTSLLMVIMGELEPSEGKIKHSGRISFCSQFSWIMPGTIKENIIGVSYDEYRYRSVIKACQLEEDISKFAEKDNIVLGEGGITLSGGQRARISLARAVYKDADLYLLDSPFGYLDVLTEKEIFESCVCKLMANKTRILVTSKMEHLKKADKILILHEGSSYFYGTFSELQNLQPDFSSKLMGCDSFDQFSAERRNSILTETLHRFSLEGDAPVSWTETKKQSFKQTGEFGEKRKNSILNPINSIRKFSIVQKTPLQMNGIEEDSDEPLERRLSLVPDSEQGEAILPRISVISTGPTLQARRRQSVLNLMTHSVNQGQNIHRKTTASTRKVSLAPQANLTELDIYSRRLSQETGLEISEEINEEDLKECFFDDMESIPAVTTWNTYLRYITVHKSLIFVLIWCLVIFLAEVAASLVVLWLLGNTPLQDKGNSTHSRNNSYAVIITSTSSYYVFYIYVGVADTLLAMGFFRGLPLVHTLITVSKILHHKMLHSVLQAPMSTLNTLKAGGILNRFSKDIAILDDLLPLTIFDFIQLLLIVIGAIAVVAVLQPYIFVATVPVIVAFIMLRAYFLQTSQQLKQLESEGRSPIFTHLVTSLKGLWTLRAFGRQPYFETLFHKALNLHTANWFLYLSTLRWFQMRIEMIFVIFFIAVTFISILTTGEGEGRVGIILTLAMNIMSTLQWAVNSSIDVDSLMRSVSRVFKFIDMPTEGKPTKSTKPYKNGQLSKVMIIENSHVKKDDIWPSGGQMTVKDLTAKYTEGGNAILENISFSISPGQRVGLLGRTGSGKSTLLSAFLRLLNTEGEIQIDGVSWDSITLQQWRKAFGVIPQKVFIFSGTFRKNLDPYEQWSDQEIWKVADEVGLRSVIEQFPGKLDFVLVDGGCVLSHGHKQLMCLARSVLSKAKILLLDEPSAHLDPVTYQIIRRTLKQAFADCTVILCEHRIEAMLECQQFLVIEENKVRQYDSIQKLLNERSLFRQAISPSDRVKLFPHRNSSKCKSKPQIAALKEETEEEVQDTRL
Test: Measurement of delF508-CFTR-HRP surface expression in CFBE41o- cells
Assay type: cell-based
Details: delF508-CFTR-HRP surface expression, CFBE41o- cells; read-out: DelF508-CFTR-HRP EC50
Description: Measurement of delF508-CFTR-HRP Surface Expression in CFBE41o-Cells This assay quantifies the cell surface expressions of the mutant CFTR channel using an extracellular HRP tag. […] The median activity for the lowest concentration of the compounds on each assay plate was calculated and this value was used to normalize the signal for each well on the respective plate. […] The median value was determined and used to calculate compound activities as described below. […]
Where a name gives a salt, the structure may show the parent alone.
Write it as a number; the unit nM goes unstated.

Look over these answered cases.
CN[C@@H]1CCN(c2cccc(S(=O)(=O)Nc3ccc(C(F)(F)F)c(-c4ccccc4C)n3)n2)C1 [Example 121, Hydrochloride] :: 3450
CC1(C(=O)O)CCCN(c2cccc(S(=O)(=O)Nc3ccc(C(F)(F)F)c(-c4ccccc4C4CCC4)n3)n2)C1 (stereo not shown) :: 671
CC(=O)N1CCN(c2cccc(S(=O)(=O)Nc3ccc(C(F)(F)F)c(-c4cc(F)ccc4C)n3)n2)CC1 :: 1500

Now turn to the next compound.
Lookup: Which EC50 reading was recorded for the compound CC1(C(=O)O)CCN(c2cccc(S(=O)(=O)Nc3ccc(C(F)(F)F)c(-c4ccccc4N4CCOCC4)n3)n2)CC1 ?
Found: 2150

====

Molecular target: delF508-CFTR (Homo sapiens, UniProt P13569, DEL508-508)
Construct: functional activity of the CFTR channel (Chloride ion transport) in patient derived primary human bronchial epithelial cells; host or cells: patient-derived primary human bronchial epithelial cells (delF508-CFTR)
Sequence (P13569 with tags, fused parts or gaps DEL508-508): as above
Test: Measurement of delF508-CFTR functional activity in primary human bronchial epithelial cells (HBECs) using Multi-Transepithelial Clamp Circuit (MTECC-24) assay
Assay type: cell-based
Conditions: primary CF HBECs; test compound added 24h before assay plus potentiator; relative to reference combination (2 μM corrector + 0.5 μM potentiator)
Values of MTECC24 CFHBEC- Amax % greater than or equal to 60% map to 1; values below map to 0.

Nc1cccc(S(=O)(=O)Nc2ccc(Cl)c(-c3cccc(C(F)(F)F)c3)n2)n1 [Example 73] :: 1
Cc1ccc(F)cc1-c1nc(NS(=O)(=O)c2cccc(N3CC(O)(CO)C3)n2)ccc1Cl [Example 235] :: 0
O=S(=O)(Nc1ccc(C(F)(F)F)c(-c2ccccc2C2CC2)n1)c1cccc(N2CCNCC2)n1 [Example 148] :: 1
Cc1cccc(C)c1-c1nc(NS(=O)(=O)c2cccc(N3CCC(C)(C(=O)O)CC3)n2)ccc1C(F)(F)F [Example 265] :: 0
Cc1ccccc1-c1nc(NS(=O)(=O)c2cccc(N[C@H]3C[C@@H](O)C3)n2)ccc1C(F)(F)F [Example 283] :: 1

Lookup: Could you verify whether the entry Cc1ccccc1-c1nc(NS(=O)(=O)c2cccc(N3C[C@H](O)[C@@H](N4CCCC4)C3)n2)ccc1C(F)(F)F [Example 118] shows MTECC24 CFHBEC- Amax % of no less than 60%?
Found: 1

====

pEC50 reference
Target: horseradish peroxidase (HRP) tagged delF508-CFTR (Homo sapiens, UniProt P13569, DEL508-508)
Construct: expressed in transfected cells
Assay: Measurement of delF508-CFTR-HRP surface expression in CFBE41o- cells
Format: cell-based
Details: delF508-CFTR-HRP surface expression, CFBE41o- cells; read-out: DelF508-CFTR-HRP EC50
Structures can show the parent of a compound that is named as a salt.
// scale note: pEC50 = -log10(conc_M); give the bare number

Cc1c(F)cccc1-c1nc(NS(=O)(=O)c2cccc(N3CCNCC3)n2)ccc1Cl [Example 194, hydrochloride] :: 5.42

Lookup: GET /values?readout=pEC50&item= Cc1ccccc1-c1nc(NS(=O)(=O)c2cccc(N3CCN(C4COC4)CC3)n2)ccc1C(F)(F)F [Example 187]
Found: 5.59

Lookup: How about this molecule: Cc1cccc(C)c1-c1nc(NS(=O)(=O)c2cccc(N)n2)c(F)cc1Cl [Example 95]
Found: 5.43

Lookup: Repeat with CCOc1ccccc1-c1nc(NS(=O)(=O)c2cccc(N3CCC[C@@](C)(C(=O)O)C3)n2)ccc1C(F)(F)F [Example 328]
Found: 5.75

Lookup: Again, but for Cc1ccccc1-c1nc(NS(=O)(=O)c2cccc(N[C@H]3C[C@](C)(C(=O)O)C3)n2)ccc1C(F)(F)F [Example 365]
Found: 5.72

Lookup: Entry Cc1ccc(F)cc1-c1nc(NS(=O)(=O)c2cccc(N3CCN[C@@H](CO)C3)n2)ccc1C(F)(F)F [Example 174, Hydrochloride] please
Found: 5.58

====

Biological target: horseradish peroxidase (HRP) tagged delF508-CFTR (Homo sapiens, UniProt P13569, DEL508-508)
Construct: expressed in transfected cells
Assay: Measurement of delF508-CFTR-HRP surface expression in CFBE41o- cells
Type: cell-based
Settings: delF508-CFTR-HRP surface expression, CFBE41o- cells; read-out: DelF508-CFTR-HRP EC50
measurement.kind: EC50 (nM)
Just the number in nM, nothing appended.

Consider the worked cases shown below.
Cc1ccc(F)cc1-c1nc(NS(=O)(=O)c2ccnc(N3CCNCC3)c2)ccc1Cl [Example 327] :: 4260
Cc1ccccc1-c1nc(NS(=O)(=O)c2cccc(N[C@H]3C[C@@](C)(C(=O)O)C3)n2)ccc1C(F)(F)F [Example 356] :: 1510
O=S(=O)(Nc1ccc(C(F)(F)F)c(-c2ccccc2C2CC2)n1)c1cccc(N2CCNCC2)n1 [Example 148] :: 2460

Lookup: I'd like to know its EC50. The compound in question is COC(=O)C1(N)CCN(c2cccc(S(=O)(=O)Nc3ccc(Cl)c(-c4c(C)cccc4C)n3)n2)CC1 [Example 270]
Found: 1940

====

Biological target: horseradish peroxidase (HRP) tagged delF508-CFTR (Homo sapiens, UniProt P13569, DEL508-508)
Construct: expressed in transfected cells
Test: Measurement of delF508-CFTR-HRP surface expression in CFBE41o- cells;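 as to DelF508-CFTR-HRP Amax %: percent efficacy relative to reference corrector lumacaftor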
Type: cell-based
Details: delF508-CFTR-HRP surface expression, CFBE41o- cells; read-out: DelF508-CFTR-HRP Amax %
measurement.kind: Emax

Past entries and their recorded results:
Cc1ccc(F)cc1-c1nc(NS(=O)(=O)c2ccnc(N3CCNCC3)c2)ccc1Cl [Example 327] :: 92.5%
Cc1ccccc1-c1nc(NS(=O)(=O)c2cccc(N3CCNC(=O)C3)n2)ccc1C(F)(F)F [Example 190] :: 565%
Cc1ccc(C(F)(F)F)cc1-c1nc(NS(=O)(=O)c2cccc(N3CCN(C(=O)OC(C)(C)C)CC3)n2)ccc1Cl [Example 168] :: 271%
CCc1ccccc1-c1nc(NS(=O)(=O)c2ccnc(N3CCC(C)(C(=O)O)CC3)c2)ccc1C(F)(F)F [Example 374] :: 233%
O=C(O)[C@H]1CCCN(c2cccc(S(=O)(=O)Nc3ccc(C(F)(F)F)c(-c4ccccc4C4CCC4)n3)n2)C1 [Example 367] :: 809%

Lookup: Looking for the measured Emax of Nc1cccc(S(=O)(=O)Nc2ccc(Cl)c(-c3cc(F)ccc3C3CC3)n2)n1 [Example 21] , can you help?
Found: 493%

Lookup: Would you mind doing CC1(C(=O)O)CCN(c2cccc(S(=O)(=O)Nc3ccc(C(F)(F)F)c(-c4ccccc4C4CCC4)n3)n2)CC1 [Example 363] as well?
Found: 616%

Lookup: Another molecule to check: Cc1ccccc1-c1nc(NS(=O)(=O)c2cccc(N[C@H]3C[C@H](O)C3)n2)ccc1C(F)(F)F [Example 284]
Found: 493%

Lookup: And Cc1ccccc1-c1nc(NS(=O)(=O)c2cccc(N3CCN(C(=O)OC(C)(C)C)CC3)n2)ccc1C(F)(F)F [Example 160] ?
Found: 476%

Lookup: Try the molecule Cc1cccc(C)c1-c1nc(NS(=O)(=O)c2cccc(N[C@H]3C[C@@H](O)C3)n2)ccc1Cl [Example 286]
Found: 847%

====

Target: delF508-CFTR (Homo sapiens, UniProt P13569, DEL508-508)
Construct: functional activity of the CFTR channel (Chloride ion transport) in patient derived primary human bronchial epithelial cells
Assay: Measurement of delF508-CFTR functional activity in primary human bronchial epithelial cells (HBECs) using Multi-Transepithelial Clamp Circuit (MTECC-24) assay
Details: primary CF HBECs; test compound added 24h before assay, in the presence of potentiator; mean of at least two replicates; read-out: MTECC24 CFHBEC- EC50
Where a name gives a salt, the structure may show the parent alone.
measurement.kind: pEC50
pEC50 (log units): -log10 of the concentration in mol/L.

Answered examples (3):
CCOC(=O)C1(C)CCN(c2cccc(S(=O)(=O)Nc3ccc(C(F)(F)F)c(-c4cc(F)ccc4C)n3)n2)CC1 :: 8.49
Cc1c(F)cccc1-c1nc(NS(=O)(=O)c2cccc(N)n2)ccc1C(F)(F)F :: 8.57
Cc1ccccc1-c1nc(NS(=O)(=O)c2cccc(O[C@@H]3COCC3(C)O)n2)ccc1C(F)(F)F (mixture of isomers) :: 7.66

Lookup: pEC50 of Cc1c(F)cccc1-c1nc(NS(=O)(=O)c2cccc(N3CCNCC3)n2)ccc1C(F)(F)F [Example 151, Hydrochloride] on delF508-CFTR (Homo sapiens, UniProt P13569, DEL508-508)?
Found: 7.02

Lookup: Consider next the compound O=S(=O)(Nc1ccc(C(F)(F)F)c(-c2ccccc2C2CC2)n1)c1cccc(N2CC(O)C2)n1 in the same way.
Found: 8.28

Lookup: Please give the result for Cc1ccc(OC(F)(F)F)cc1-c1nc(NS(=O)(=O)c2cccc(N)n2)ccc1Cl too.
Found: 7.40

Lookup: Another compound to check: Cc1c(C#N)cccc1-c1nc(NS(=O)(=O)c2cccc(N3CC(C)(O)C3)n2)ccc1Cl
Found: 6.68

Lookup: Next compound up: O=S(=O)(Nc1ccc(C(F)(F)F)c(-c2ccccc2Cl)n1)c1cccc(N2CCNCC2)n1 [Example 150, hydrochloride]
Found: 7.01

Lookup: What do you have for Cc1ccc(F)cc1-c1nc(NS(=O)(=O)c2cccc(N3CCC(C(=O)O)C3)n2)ccc1C(F)(F)F (stereo not drawn) ?
Found: 7.89

Lookup: And Cc1ccccc1-c1nc(NS(=O)(=O)c2cccc(N[C@@H]3CCNC3)n2)ccc1C(F)(F)F [Example 123, Hydrochloride] ?
Found: 6.62

Lookup: // same read-out, input: Cc1ccc(F)cc1-c1nc(NS(=O)(=O)c2ccnc(N3CC(O)C3)c2)ccc1C(F)(F)F
Found: 7.32

Lookup: Can you handle Cc1ccccc1-c1nc(NS(=O)(=O)c2cccc(N3CCN(C(=O)OC(C)(C)C)[C@H](C)C3)n2)ccc1C(F)(F)F next?
Found: 7.93
